biological target: Protein deacetylase HDAC6 (Homo sapiens); assay: Inhibition of recombinant human HDAC6 using Boc-Lys(Ac)-AMC as substrate preincubated for 1 hr followed by substrate addition and measured after 2 hrs by microplate reader assay
Sequence (Q9UBN7 whole entry): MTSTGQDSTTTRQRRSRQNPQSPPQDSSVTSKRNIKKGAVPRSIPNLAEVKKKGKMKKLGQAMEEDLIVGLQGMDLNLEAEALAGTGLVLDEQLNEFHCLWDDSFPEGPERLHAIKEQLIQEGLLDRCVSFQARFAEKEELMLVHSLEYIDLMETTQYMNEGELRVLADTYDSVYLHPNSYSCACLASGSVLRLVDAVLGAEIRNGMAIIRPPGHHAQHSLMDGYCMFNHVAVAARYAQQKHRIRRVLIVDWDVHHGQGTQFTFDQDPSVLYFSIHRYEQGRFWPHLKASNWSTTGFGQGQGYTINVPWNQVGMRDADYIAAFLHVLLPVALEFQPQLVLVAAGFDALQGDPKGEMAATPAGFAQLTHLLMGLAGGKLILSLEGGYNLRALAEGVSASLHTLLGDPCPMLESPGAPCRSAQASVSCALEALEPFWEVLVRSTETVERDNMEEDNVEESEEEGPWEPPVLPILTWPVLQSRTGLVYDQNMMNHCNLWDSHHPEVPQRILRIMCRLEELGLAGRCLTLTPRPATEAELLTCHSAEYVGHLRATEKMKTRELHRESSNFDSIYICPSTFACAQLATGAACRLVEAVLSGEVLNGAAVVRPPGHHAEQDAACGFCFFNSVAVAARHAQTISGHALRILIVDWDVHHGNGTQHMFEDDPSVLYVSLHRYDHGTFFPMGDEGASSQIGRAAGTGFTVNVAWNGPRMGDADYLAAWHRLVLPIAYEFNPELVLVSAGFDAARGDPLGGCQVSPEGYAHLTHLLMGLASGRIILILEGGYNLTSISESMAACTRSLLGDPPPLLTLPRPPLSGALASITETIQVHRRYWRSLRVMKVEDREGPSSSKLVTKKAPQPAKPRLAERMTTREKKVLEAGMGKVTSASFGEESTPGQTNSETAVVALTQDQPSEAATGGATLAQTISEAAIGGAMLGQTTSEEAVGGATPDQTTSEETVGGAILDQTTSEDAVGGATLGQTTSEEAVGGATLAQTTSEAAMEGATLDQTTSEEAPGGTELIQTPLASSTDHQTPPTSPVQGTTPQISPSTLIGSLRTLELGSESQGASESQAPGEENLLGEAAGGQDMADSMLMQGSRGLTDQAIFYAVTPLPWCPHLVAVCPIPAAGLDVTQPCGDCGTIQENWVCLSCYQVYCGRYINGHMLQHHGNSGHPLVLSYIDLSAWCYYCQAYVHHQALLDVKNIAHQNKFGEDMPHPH
Value Kind: pIC50
Note on units: pIC50 is unitless, being -log10 of a concentration expressed in mol/L.

Query block: Please supply the value of reported pIC50 for the item O=C(NCC[Se][Se]CCNC(=O)/C(Cc1ccc(Br)s1)=N/O)/C(Cc1ccc(Br)s1)=N/O
Result block: 5.44

Query block: Please supply the value of reported pIC50 for the item O=C(NCC[Se][Se]CCNC(=O)/C(Cc1ccsc1)=N/O)/C(Cc1ccsc1)=N/O
Result block: 5.51

Query block: Please supply the value of reported pIC50 for the item O=C(NCC[Se][Se]CCNC(=O)/C(Cc1ccc(O)c(Br)c1)=N/O)/C(Cc1ccc(O)c(Br)c1)=N/O
Result block: 7.22
